These entries and their values trace back to patent US9682141B2.

Measured IC50 on PI3K α (Homo sapiens (Human), UniProt P42336) follows.
Sequence (P42336 whole entry, one chain of several): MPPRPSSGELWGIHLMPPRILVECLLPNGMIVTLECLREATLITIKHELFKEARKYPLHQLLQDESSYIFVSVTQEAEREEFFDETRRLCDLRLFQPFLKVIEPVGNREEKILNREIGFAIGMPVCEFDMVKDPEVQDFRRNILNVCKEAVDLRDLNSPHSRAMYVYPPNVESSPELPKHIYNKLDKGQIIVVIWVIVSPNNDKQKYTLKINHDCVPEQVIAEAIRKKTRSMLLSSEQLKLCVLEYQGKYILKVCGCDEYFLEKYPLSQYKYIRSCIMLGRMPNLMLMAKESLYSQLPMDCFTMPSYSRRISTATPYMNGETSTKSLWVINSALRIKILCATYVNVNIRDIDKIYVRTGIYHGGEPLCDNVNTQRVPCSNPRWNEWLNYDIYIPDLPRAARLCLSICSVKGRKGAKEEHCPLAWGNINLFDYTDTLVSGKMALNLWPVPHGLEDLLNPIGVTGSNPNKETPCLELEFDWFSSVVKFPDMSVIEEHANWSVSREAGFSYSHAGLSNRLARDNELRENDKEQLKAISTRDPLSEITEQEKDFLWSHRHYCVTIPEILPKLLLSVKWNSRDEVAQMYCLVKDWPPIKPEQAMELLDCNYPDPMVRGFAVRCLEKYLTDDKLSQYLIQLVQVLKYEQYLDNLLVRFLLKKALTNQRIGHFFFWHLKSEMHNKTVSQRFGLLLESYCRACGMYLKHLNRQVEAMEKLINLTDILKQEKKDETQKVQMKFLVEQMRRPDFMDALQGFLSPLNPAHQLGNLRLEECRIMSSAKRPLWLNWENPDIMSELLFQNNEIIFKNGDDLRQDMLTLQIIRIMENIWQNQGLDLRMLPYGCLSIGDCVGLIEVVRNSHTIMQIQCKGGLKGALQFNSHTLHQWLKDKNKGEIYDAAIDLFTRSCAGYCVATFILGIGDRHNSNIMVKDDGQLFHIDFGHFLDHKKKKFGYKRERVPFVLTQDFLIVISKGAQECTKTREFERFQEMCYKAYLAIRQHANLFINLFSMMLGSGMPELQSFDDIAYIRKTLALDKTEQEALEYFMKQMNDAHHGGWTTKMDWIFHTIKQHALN

RECORD SMILES: COC(=O)N1CCC(n2ncc3c(N4CCOCC4)nc(-c4ccc5oc(N)nc5c4)nc32)CC1
IC50: < 1000 nM

I'm hoping you can list IC50 for every compound here, please.
1. CC(=O)N1CCC(Nc2cnc3ccc(-c4ccc5oc(N)nc5c4)cc3n2)CC1
2. CS(=O)(=O)N1CCN(C2CN(c3cnc4ccc(-c5ccc6oc(N)nc6c5)nc4n3)C2)CC1
3. Cc1cc2ncc(C(=O)N3CCOCC3)n2cc1-c1ccc2oc(N)nc2c1
4. CN1CCN(C2CN(c3cnc4ccc(-c5ccc6oc(N)nc6c5)cc4n3)C2)CC1
5. CCN(CC)C1CN(c2cnc3ccc(-c4ccc5oc(N)nc5c4)cc3n2)C1
6. C[C@H]1CN(C2CN(c3cnc4ccc(-c5ccc6oc(N)nc6c5)nc4c3)C2)CCN1

## Result
< 100 nM
< 100 nM
> 10000 nM
< 100 nM
< 100 nM
< 100 nM

====

Consider the following compounds; for each one, report its pIC50.
Biological target: PI3K β (Homo sapiens (Human), UniProt P42338)
Sequence (P42338 whole entry): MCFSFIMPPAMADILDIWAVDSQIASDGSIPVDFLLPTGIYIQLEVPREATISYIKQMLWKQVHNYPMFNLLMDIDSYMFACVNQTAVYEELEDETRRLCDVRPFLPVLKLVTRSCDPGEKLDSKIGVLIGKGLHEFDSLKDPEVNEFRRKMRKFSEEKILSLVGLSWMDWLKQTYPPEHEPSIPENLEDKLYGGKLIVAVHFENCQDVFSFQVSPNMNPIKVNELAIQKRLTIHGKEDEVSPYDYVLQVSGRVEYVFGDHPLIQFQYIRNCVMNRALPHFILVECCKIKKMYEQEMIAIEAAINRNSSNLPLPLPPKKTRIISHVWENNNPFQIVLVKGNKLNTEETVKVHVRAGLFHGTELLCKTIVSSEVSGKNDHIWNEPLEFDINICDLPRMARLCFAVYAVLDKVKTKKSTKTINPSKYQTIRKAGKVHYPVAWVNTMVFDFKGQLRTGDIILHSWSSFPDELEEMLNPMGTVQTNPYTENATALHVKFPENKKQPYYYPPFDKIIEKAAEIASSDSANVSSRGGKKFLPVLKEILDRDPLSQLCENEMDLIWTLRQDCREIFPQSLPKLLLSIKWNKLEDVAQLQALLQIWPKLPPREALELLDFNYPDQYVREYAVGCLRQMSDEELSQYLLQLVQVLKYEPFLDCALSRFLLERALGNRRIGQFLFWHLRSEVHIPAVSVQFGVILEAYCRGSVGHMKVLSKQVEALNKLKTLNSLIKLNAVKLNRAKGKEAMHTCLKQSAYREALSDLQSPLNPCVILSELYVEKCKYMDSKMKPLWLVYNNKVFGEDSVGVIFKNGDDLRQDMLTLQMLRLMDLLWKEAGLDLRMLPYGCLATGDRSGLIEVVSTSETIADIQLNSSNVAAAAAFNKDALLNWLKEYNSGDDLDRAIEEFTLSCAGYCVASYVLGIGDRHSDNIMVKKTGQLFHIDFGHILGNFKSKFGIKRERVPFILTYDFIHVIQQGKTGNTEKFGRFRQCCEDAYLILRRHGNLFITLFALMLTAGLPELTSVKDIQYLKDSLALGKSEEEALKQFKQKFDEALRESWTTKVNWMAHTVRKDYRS
Sequence (P27986 whole entry partner): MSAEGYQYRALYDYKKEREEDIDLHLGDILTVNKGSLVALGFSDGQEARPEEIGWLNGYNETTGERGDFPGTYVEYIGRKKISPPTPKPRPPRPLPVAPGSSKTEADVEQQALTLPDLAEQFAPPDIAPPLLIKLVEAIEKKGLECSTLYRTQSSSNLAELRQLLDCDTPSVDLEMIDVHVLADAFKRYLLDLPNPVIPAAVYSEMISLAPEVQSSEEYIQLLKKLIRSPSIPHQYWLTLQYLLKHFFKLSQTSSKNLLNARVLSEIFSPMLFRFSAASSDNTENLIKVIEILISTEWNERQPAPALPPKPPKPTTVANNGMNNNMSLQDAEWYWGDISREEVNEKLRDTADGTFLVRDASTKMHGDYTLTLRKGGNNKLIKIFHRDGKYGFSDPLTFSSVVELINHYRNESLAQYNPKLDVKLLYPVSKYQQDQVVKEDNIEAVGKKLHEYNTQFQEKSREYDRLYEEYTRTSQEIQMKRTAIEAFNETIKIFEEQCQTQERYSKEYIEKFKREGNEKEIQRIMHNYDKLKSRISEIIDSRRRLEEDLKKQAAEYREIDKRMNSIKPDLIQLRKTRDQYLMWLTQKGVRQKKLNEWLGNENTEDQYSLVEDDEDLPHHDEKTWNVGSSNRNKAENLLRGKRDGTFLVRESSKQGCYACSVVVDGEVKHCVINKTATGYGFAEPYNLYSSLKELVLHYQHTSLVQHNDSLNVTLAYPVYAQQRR
pIC50: −log10 of the molar value.

These recorded examples may help you get a feel for the data.
COMPOUND: Nc1nc2cc(-c3ccc4ncc(C(=O)N5CCCCC5)n4c3)ccc2o1
ENDPOINT VALUE: > 5.00
//
COMPOUND: Nc1nc2cc(-c3cn4c(-c5ccncc5)cnc4cn3)ccc2o1
ENDPOINT VALUE: > 5.00
//
COMPOUND: Nc1nc2cc(-c3ccc4ncc(N5CC(N6CCN(C7CC7)CC6)C5)nc4c3)ccc2o1
ENDPOINT VALUE: > 5.00
//
COMPOUND: CC(C)N1CCN(c2cnc3ccc(-c4ccc5oc(N)nc5c4)nc3c2)CC1
ENDPOINT VALUE: > 6.00
//
COMPOUND: Cc1cc2oc(N)nc2cc1-c1ccc2ncc(C(=O)N3CCOCC3)n2c1
ENDPOINT VALUE: < 5.00
//
COMPOUND: C[C@@H]1CN(C2CN(c3cnc4ccc(-c5ccc6oc(N)nc6c5)nc4c3)C2)CCN1C
ENDPOINT VALUE: > 5.00
//
COMPOUND: Nc1ncc(-c2cnc3ccc(-c4ccc5oc(N)nc5c4)cc3n2)cn1
ENDPOINT VALUE: < 5.00
//
COMPOUND: CS(=O)(=O)CCN1CCC(NC(=O)c2cnc3ccc(-c4ccc5oc(N)nc5c4)cn23)CC1
ENDPOINT VALUE: > 5.00

Record pIC50 per entry; entries follow.
1. Nc1nc2cc(-c3ccc4ncc(C(=O)N5CCOCC5)n4c3)cc(F)c2o1
2. C[C@H]1CN(C2CN(c3cnc4ccc(-c5ccc6oc(N)nc6c5)cc4n3)C2)CCN1
3. Cc1cc(-c2ccc3oc(N)nc3c2)cc2c(C(=O)N3CCOCC3)cnn12
4. Nc1nc2cc(-c3ccc4ncc(=O)[nH]c4c3)ccc2o1
5. C[C@H]1CN(C2CN(C(=O)c3cnc4ccc(-c5ccc6oc(N)nc6c5)cn34)C2)CCN1C
6. Nc1nc2cc(-c3ccc4ncc(C(=O)N5CC[C@H](O)C5)n4c3)ccc2o1

## Result
1. > 6.00
2. > 5.00
3. > 5.00
4. > 6.00
5. > 5.00
6. > 5.00
